Reported inhibition values for a set of compounds
- EXPERIMENT: PhoP regulon inhibitors, Salmonella typhi PhoP promoter GFP reporter, confirmatory (AID 1850);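 also: 0% = induced wells with vehicle and 100% = uninduced wells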
- STUDY CONDITIONS: fluorescence, 4 h, at 50 µM, stronger effect = higher value
In all, about 310,000 compounds went through this assay and about 1,000 (0.32%) were called active. The list is a sample of the results. Results with a measured potency or affinity are listed apart.
Report only the number, with the unit % understood.

Examples with their reported inhibition follow.
Cn1c(=O)oc2cc(S(=O)(=O)Nc3ccccc3O)ccc21 : -2.19
COc1ccc(/C=C2/C(=O)N(c3nc4ccccc4s3)N=C2CSc2ccc(Cl)cc2)cc1 : 3.84
CC1CCCCC1NC(=O)CN(C)S(=O)(=O)c1cccc2cccnc12 (stereo not drawn) : 10.4
C=CCNc1nc(C(=O)OCC(=O)c2ccc(Cl)cc2)cs1 : 0.24

Value lookup for inhibition; key = Cc1ccc(OCC(O)CNCc2ccc(F)cc2)cc1 (stereo not drawn)
-1.28

Value lookup for inhibition; key = Cc1cc(/C([O-])=C(/C(=S)Nc2ccc(F)cc2)[n+]2ccccc2)c(C)n1Cc1ccccc1Cl
-18.8

Value lookup for inhibition; key = CCCNC(=O)c1cc(-c2ccccc2)c(N2CCCCC2)s1
9.44

Value lookup for inhibition; key = CCn1cc(C(=O)O)c(=O)c2cc(F)c(N3CCN(C(=S)NC(=O)c4ccccc4Cl)CC3)cc21
11.6

Value lookup for inhibition; key = CCCC/C=C1\CCc2c([nH]c3ccccc23)C1=O
8.47

Value lookup for inhibition; key = COc1ccc(C(OCC(O)CNCCc2ccccc2)c2ccc(OC)cc2)cc1 (stereo not drawn)
-15.4

Value lookup for inhibition; key = CCOc1ccc(N(CC(=O)Nc2ccc(OC)cc2)S(=O)(=O)c2c(C)[nH]c(=O)[nH]c2=O)cc1
-6.24

Value lookup for inhibition; key = C=CCn1c2ccccc2n2nc(C)c(=O)nc12
5.77

Value lookup for inhibition; key = CC1(C)CC(=O)C2=C(C1)OC(N)=C(C#N)C21C(=O)N2CCCc3cccc1c32 (stereo not drawn)
-2.22

Value lookup for inhibition; key = CC1=CC(c2ccccc2)n2ncnc2N1 (stereo not drawn)
3.87

Value lookup for inhibition; key = O=C(Nc1cccc(-c2nc3ccccc3s2)c1)c1ccc2c(c1)OCO2
-3.82
